assay: in vivo; details: mouse, po, 100 mg/kg, Cmax
The following compounds are listed with their measured Cmax values.
Assay endpoint: Cmax (ng/mL)

>>> print(df.to_string())
                                    molecule  assay_endpoint  units_label  measured
 0  CC1=C(C(=O)O)N2C(=O)[C@@H](NC(=O)[C@H](N)c3ccc(O)cc3)[C@H]2SC1            Cmax        ng/mL     56000
 1  C/C=C\C1=C(C(=O)O)N2C(=O)[C@@H](NC(=O)[C@H](N)c3ccc(O)c(O)c3)[C@H]2SC1            Cmax        ng/mL    180000
 2  C=CC1=C(C(=O)O)N2C(=O)[C@@H](NC(=O)[C@H](N)c3ccc(O)cc3)[C@H]2SC1            Cmax        ng/mL     43000
 3  CC/C=C\C1=C(C(=O)[O-])N2C(=O)[C@@H](NC(=O)[C@H](N)c3ccc(O)cc3)[C@H]2SC1.[Na+]            Cmax        ng/mL     51000
 4  C/C=C\C1=C(C(=O)O)N2C(=O)[C@@H](NC(=O)[C@H](N)c3ccccc3)[C@H]2SC1            Cmax        ng/mL     40000
 5  COC/C=C\C1=C(C(=O)O)N2C(=O)[C@@H](NC(=O)[C@H](N)c3ccc(O)cc3)[C@H]2SC1            Cmax        ng/mL     73000
 6  N[C@@H](C(=O)N[C@@H]1C(=O)N2C(C(=O)O)=C(/C=C\Cc3ccccc3)CS[C@H]12)c1ccc(O)cc1            Cmax        ng/mL     41000
 7  C/C=C\C1=C(C(=O)O)N2C(=O)[C@@H](NC(=O)[C@H](N)c3ccc(O)cc3)[C@H]2SC1            Cmax        ng/mL     56000
 8  C/C=C\C1=C(C(=O)O)N2C(=O)[C@@H](NC(=O)[C@H](N)c3ccc(O)c(Cl)c3)[C@H]2SC1            Cmax        ng/mL     25000
 9  N[C@@H](C(=O)N[C@@H]1C(=O)N2C(C(=O)O)=C(C=CCSc3cnn[nH]3)CS[C@H]12)c1ccc(O)cc1            Cmax        ng/mL      4400
10  C/C=C/C1=C(C(=O)O)N2C(=O)[C@@H](NC(=O)[C@H](N)c3ccc(O)cc3)[C@H]2SC1            Cmax        ng/mL     30000
